Taken from patent US20250320303A1.

MEASURED_ON: T1, human W3785-hProl.ECD.His (Human-TNFR2-His) protein (human, UniProt P20333 23-257)
T1 construct: extracellular domain; not shown: His tag
T1 sequence (looked up): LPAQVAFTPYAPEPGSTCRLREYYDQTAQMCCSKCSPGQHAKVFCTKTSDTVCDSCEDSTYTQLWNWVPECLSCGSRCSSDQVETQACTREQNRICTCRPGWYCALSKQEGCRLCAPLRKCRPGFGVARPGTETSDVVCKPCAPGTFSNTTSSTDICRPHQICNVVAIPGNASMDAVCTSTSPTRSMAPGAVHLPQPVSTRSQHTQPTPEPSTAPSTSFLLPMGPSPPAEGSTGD
ASSAY_COMMENT: BLI (Octet Red96e), antibody on AHC sensor, Human-TNFR2-His in solution, multiple concentrations
Please note: Fulfilled applies when koff is 0.0001 s⁻¹ or greater, and Not fulfilled applies otherwise.

Worked set:
>  <BINDER>
Antibody 21 (antibody, V domains shown, detected with anti-human IgG and captured on AHC sensors) VH: EVQLVESGGGLVKPGGSLRLSCAASGFTFSNAWMGWVRQAPEKGLEWVGQIKDKSNNYPTYYAESVKGRFTISRDDSKNTLYLQMNSLKTEDTAVYYCTTYGDFFDYWGQGTLVTVSS VL: DIQMTQSPSSLSASVGDRVTITCRASEDIYNALAWYQQKPGKVPKLLLYNANSLHTGVPSRFSGSGSGTDYTLTISSLQPEDFATYFCQQYYDHPLTFGQGTKLEIK

>  <GROUP_LABEL>
Fulfilled

$$$$
>  <BINDER>
Antibody 18 (antibody, V domains shown, captured on AHC sensors) VH: QVQLVQSGAEVKKPGASVKVSCKASGYTFTDYIIHWVRQAPGQGLEWMGWIDPDYGNTDYADKFKKRVTMTADTSISTAFMELSRLRSDDTAVYYCARDDGSPLVMDAWGQGTLVTVSS VL: DIQMTQSPSSLSASVGDRVTITCQGSQNIDNYLAWFQQKPGKAPKLLIYSTYSLQTGVPSRFSGSRSGTDFTLTISSLQPEDFATYFCFQYNQGYMFGGGTKLELK

>  <GROUP_LABEL>
Not fulfilled

$$$$
>  <BINDER>
Antibody 19 (antibody, V domains shown, captured on AHC sensors) VH: QVQLVQSGAEVKKPGASVKVSCKASGYTFTDYIIHWVRQAPGQGLEWMGWIDPDYGNTDYADKFKKRVTMTADTSISTAFMELSRLRSDDTAVYYCARDDASPLVMDAWGQGTLVTVSS VL: DIQMTQSPSSLSASVGDRVTITCQGSQNIDNYLAWFQQKPGKAPKLLIYSTYSLQTGVPSRFSGSRSGTDFTLTISSLQPEDFATYFCFQYNQGYMFGGGTKLELK

>  <GROUP_LABEL>
Fulfilled

$$$$
>  <BINDER>
Antibody 11-xIgG1K (antibody, V domains shown, Rat-human chimeric antibody, human IgG1 kappa) VH: EVQLQQSGPELRRPGSSVKLSCKASGYSITDYLLHWVKHSPEHGLEWIGWIDPEDGKTKYGQKFQSKATLTADTSSNAAYMQLSSLTSEDSATYFCAANSGTGTMDAWGQGASVTVSS VL: DIVMTQSPTSMSISVGDRVTLNCKASQNVGSNVDWYQQKTGQSPKVLLYKASIRYTGVPDRFTGSGSGTEFTFTITNMQAEDLAVYFCMQSKSYPITFGSGTKLEIKR

>  <GROUP_LABEL>
Fulfilled

$$$$

Does the binder Antibody 16 (antibody, V domains shown, detected with anti-human IgG and captured on AHC sensors) VH: QVQLVQSGAEVKKPGASVKVSCKASGYTFTDYIIHWVRQAPGQGLEWMGWIDPDYGNTDYADKFKKRVTMTADTSISTAFMELSRLRSDDTAVYYCARDEGSPLVMDAWGQGTLVTVSS VL: DIQMTQSPSSLSASVGDRVTITCNGSQNIDNYLAWFQQKPGKAPKLLIYSTYSLQTGVPSRFSGSRSGTDFTLTISSLQPEDFATYFCFQYNNGYMFGGGTKLELK have recorded koff that is 0.0001 s⁻¹ or more? Fulfilled
